Origin of the recorded values: the supplement of paper PMC8149375

tested on: TK-10; test: AUC of dose-response viability curve, drug + dasatinib, normalised to DMSO (arbitrary (AUC of normalised viability)); higher = less growth inhibition; conditions: treatment: drug + dasatinib (fixed dose, not stated); 5 days
observedProperty: AUC of dose-response viability curve

molecule="Nc1cccc2c1C(=O)N(C1CCC(=O)NC1=O)C2=O (configuration not stated) [Pomalidomide] + Cc1nc(Nc2ncc(C(=O)Nc3c(C)cccc3Cl)s2)cc(N2CCN(CCO)CC2)n1" val=2.5
molecule="CC1(C)CCC(CN2CCN(c3ccc(C(=O)NS(=O)(=O)c4ccc(NCC5CCOCC5)c([N+](=O)[O-])c4)c(Oc4cnc5[nH]ccc5c4)c3)CC2)=C(c2ccc(Cl)cc2)C1 [ABT-199 (GDC-0199 )] + Cc1nc(Nc2ncc(C(=O)Nc3c(C)cccc3Cl)s2)cc(N2CCN(CCO)CC2)n1" val=2.39
molecule="Cc1ccc(NC(=O)c2ccc(CN3CCN(C)CC3)cc2)cc1Nc1nccc(-c2cccnc2)n1 [Imatinib (Gleevec)] + Cc1nc(Nc2ncc(C(=O)Nc3c(C)cccc3Cl)s2)cc(N2CCN(CCO)CC2)n1" val=2.45
molecule="C=CC(=O)Nc1ccc2ncnc(Nc3ccc(OCc4cccc(F)c4)c(Cl)c3)c2c1.Cc1ccc(S(=O)(=O)O)cc1 [AST-1306] + Cc1nc(Nc2ncc(C(=O)Nc3c(C)cccc3Cl)s2)cc(N2CCN(CCO)CC2)n1" val=2.01
molecule="O=C1NC(=O)C(=Cc2ccc(-c3ccc(F)cc3)o2)S1 (stereo in doubt) + Cc1nc(Nc2ncc(C(=O)Nc3c(C)cccc3Cl)s2)cc(N2CCN(CCO)CC2)n1" val=2.37
molecule="CNC(=O)c1cc(Oc2ccc(NC(=O)Nc3cc(C(C)(C)C)nn3-c3ccc4ncccc4c3)c(F)c2)ccn1 [DCC-2036 (Rebastinib)] + Cc1nc(Nc2ncc(C(=O)Nc3c(C)cccc3Cl)s2)cc(N2CCN(CCO)CC2)n1" val=2.29
molecule="Cc1ccc(NC(=O)c2cccc(C(C)(C)C#N)c2)cc1Nc1ccc2ncn(C)c(=O)c2c1 [AZ628] + Cc1nc(Nc2ncc(C(=O)Nc3c(C)cccc3Cl)s2)cc(N2CCN(CCO)CC2)n1" val=2.25
molecule="CCc1cc(Nc2nccc(-c3c(-c4ccc(OC)c(C(=O)Nc5c(F)cccc5F)c4)nc4ccccn34)n2)c(OC)cc1N1CCC(N2CCN(S(C)(=O)=O)CC2)CC1 + Cc1nc(Nc2ncc(C(=O)Nc3c(C)cccc3Cl)s2)cc(N2CCN(CCO)CC2)n1" val=2.59
molecule="CC(C)n1nc(-c2cc3cc(O)ccc3[nH]2)c2c(N)ncnc21 [PP242] + Cc1nc(Nc2ncc(C(=O)Nc3c(C)cccc3Cl)s2)cc(N2CCN(CCO)CC2)n1" val=1.86
molecule="CCN1CCN(c2ccc(Nc3cc(N(C)C(=O)Nc4c(Cl)c(OC)cc(OC)c4Cl)ncn3)cc2)CC1 [BGJ398 (NVP-BGJ398)] + Cc1nc(Nc2ncc(C(=O)Nc3c(C)cccc3Cl)s2)cc(N2CCN(CCO)CC2)n1" val=2.18
molecule="CC(C)(C)Cn1c(N)nc2ccc(-c3[nH]c(C(C)(C)C)nc3-c3ccc(F)cc3)nc21.CS(=O)(=O)O.CS(=O)(=O)O + Cc1nc(Nc2ncc(C(=O)Nc3c(C)cccc3Cl)s2)cc(N2CCN(CCO)CC2)n1" val=2.23
molecule="CNC(=O)c1ccc(-c2cnc3ncc(Cc4ccc5ncccc5c4)n3n2)cc1F + Cc1nc(Nc2ncc(C(=O)Nc3c(C)cccc3Cl)s2)cc(N2CCN(CCO)CC2)n1" val=2.44
molecule="COc1ccc2c(OCc3nnc4ccc(-c5ccccc5)nn34)ccnc2c1 [AMG-208] + Cc1nc(Nc2ncc(C(=O)Nc3c(C)cccc3Cl)s2)cc(N2CCN(CCO)CC2)n1" val=2.54
molecule="O=C(O)c1ccc2c(c1)nc(Nc1cccc(Cl)c1)c1ccncc12 [cx-4945 (Silmitasertib)] + Cc1nc(Nc2ncc(C(=O)Nc3c(C)cccc3Cl)s2)cc(N2CCN(CCO)CC2)n1" val=2.54
molecule="O=C(NOCC1CC1)c1ccc(F)c(F)c1Nc1ccc(I)cc1Cl + Cc1nc(Nc2ncc(C(=O)Nc3c(C)cccc3Cl)s2)cc(N2CCN(CCO)CC2)n1" val=2.4
molecule="COC(=O)Nc1ccc(-c2nc(N3CCOCC3)c3cnn(C4CCN(C(=O)OC)CC4)c3n2)cc1 [WYE-354] + Cc1nc(Nc2ncc(C(=O)Nc3c(C)cccc3Cl)s2)cc(N2CCN(CCO)CC2)n1" val=1.83
molecule="CN1CCN(c2ccc3nc(-c4c(N)c5c(F)cccc5[nH]c4=O)[nH]c3c2)CC1 [Dovitinib (TKI-258)] + Cc1nc(Nc2ncc(C(=O)Nc3c(C)cccc3Cl)s2)cc(N2CCN(CCO)CC2)n1" val=2.33
